biological target: purified HLA-DR molecule DRB1*0405 (human); assay: competition with 125I-labelled peptide for purified HLA
The entries below are paired with their reported IC50.
Provide only the numeric value, understood in µM.

Solved cases (4 shown):
| binder | IC50, µM |
| --- | --- |
| MVAYMLERELVRKTR (modifications not checked) [… (Flu.PB2.205)] | 5.54 |
| RGILEDEQMYQKCCN (modifications not checked) [… (Flu.PB1.683)] | 3.28 |
| PVHFRNQVKIRRRVD (modifications not checked) [… (Flu.PB2.135)] | 6.04 |
| LRNLMSQSRTREILT (modifications not checked) [LRNLMS1SRTREILT (Flu.PB2.10)] | 9.69 |

Q. Item under review: QRGILEDEQMYQKCC (modifications not checked) [… (Flu.PB1.682)] . Reported IC50?
A. 0.7
